Assay: Volume of distribution at steady state in rat at 3 mg/kg, iv and 10 mg/kg, po
Assay type: ADME, organism-based
Conditions: in vivo, read-out: Vdss
Threshold-based label: Vd under 10 L/kg gives Met, Vd not under 10 L/kg gives Not met.

Reference set (8 entries):
COc1cc2c(Nc3ccc(F)c(Cl)c3)c(C(N)=O)cnc2cc1OCCN(C)C	Not met
COc1cc2c(Nc3ccc(F)cc3F)c(C(N)=O)cnc2cc1NCCN(C)C	Not met
COc1cc2c(Nc3ccc(F)c(Cl)c3)c(C(N)=O)cnc2cc1OCCNC1CC1	Not met
COc1cc2c(Nc3ccc(F)c(Cl)c3)c(C(N)=O)cnc2cc1OCCN1CCCC1	Not met
COc1cc2ncc(C(N)=O)c(Nc3ccc(F)c(Cl)c3)c2cc1OC	Met
COc1cc2c(Nc3cccc(Cl)c3Cl)c(C(N)=O)cnc2cc1NCCN(C)C	Not met
COc1cc2ncc(C(N)=O)c(Nc3cccc(Cl)c3Cl)c2cc1NCCN1CCCCC1	Met
COc1cc2ncc(C(N)=O)c(Nc3ccc(F)cc3)c2cc1OC	Met

Q. Below 10 L/kg on Vd? Entry COc1cc2ncc(C(N)=O)c(Nc3cccc(Cl)c3Cl)c2cc1OC
A. Met

Q. Below 10 L/kg on Vd? Entry CCOc1cc2ncc(C(N)=O)c(Nc3cccc(Cl)c3Cl)c2cc1NCCN1CCCCC1
A. Not met

###

Assay: Clearance in rat at 3 mg/kg, iv and 10 mg/kg, po
Assay type: ADME, organism-based
Settings: in vivo
quantity name: log10 clearance (log10 of the value in mL/min/kg)
Reminder: these figures are log10 of reported clearance, in mL/min/kg before transformation.

# count of solved cases: 5
CCOc1cc2ncc(C(N)=O)c(Nc3cccc(Cl)c3Cl)c2cc1NCCN1CCCCC1	2.04
COc1cc2c(Nc3ccc(F)cc3F)c(C(N)=O)cnc2cc1NCCN(C)C	2.34
COc1cc2ncc(C(N)=O)c(Nc3cccc(Cl)c3Cl)c2cc1OC	2.06
COc1cc2c(Nc3ccc(F)c(Cl)c3)c(C(N)=O)cnc2cc1OCCNC1CC1	2.36
COc1cc2c(Nc3ccc(F)c(Cl)c3)c(C(N)=O)cnc2cc1OCCN(C)C	2.32

Recorded result, COc1cc2c(Nc3ccc(F)c(Cl)c3)c(C(N)=O)cnc2cc1OCCN1CCCC1 , log10 clearance: 2.43

Recorded result, COc1cc2ncc(C(N)=O)c(Nc3cccc(Cl)c3Cl)c2cc1NCCN1CCCCC1 , log10 clearance: 1.89

Recorded result, COc1cc2c(Nc3cccc(Cl)c3Cl)c(C(N)=O)cnc2cc1NCCN(C)C , log10 clearance: 1.95

Recorded result, COc1cc2ncc(C(N)=O)c(Nc3ccc(F)cc3)c2cc1OC , log10 clearance: 0.85

Recorded result, COc1cc2ncc(C(N)=O)c(Nc3ccc(F)c(Cl)c3)c2cc1OC , log10 clearance: 1.77

###

Assay: Half life in rat at 3 mg/kg, iv and 10 mg/kg, po
Format: ADME, organism-based
Details: in vivo
We use 2 h as the dividing line for half-life: on or above the line is true (1), below is false (0).

COc1cc2ncc(C(N)=O)c(Nc3ccc(F)cc3)c2cc1OC	false (0)

Q. Item COc1cc2ncc(C(N)=O)c(Nc3ccc(F)c(Cl)c3)c2cc1OC with half-life of 2 h or above?
A. false (0)

Q. Item COc1cc2c(Nc3cccc(Cl)c3Cl)c(C(N)=O)cnc2cc1NCCN(C)C with half-life of 2 h or above?
A. true (1)

Q. Item COc1cc2ncc(C(N)=O)c(Nc3cccc(Cl)c3Cl)c2cc1OC with half-life of 2 h or above?
A. false (0)

Q. Item COc1cc2c(Nc3ccc(F)c(Cl)c3)c(C(N)=O)cnc2cc1OCCN1CCCC1 with half-life of 2 h or above?
A. true (1)

Q. Item COc1cc2ncc(C(N)=O)c(Nc3cccc(Cl)c3Cl)c2cc1NCCN1CCCCC1 with half-life of 2 h or above?
A. false (0)

Q. Item CCOc1cc2ncc(C(N)=O)c(Nc3cccc(Cl)c3Cl)c2cc1NCCN1CCCCC1 with half-life of 2 h or above?
A. false (0)

Q. Item COc1cc2c(Nc3ccc(F)c(Cl)c3)c(C(N)=O)cnc2cc1OCCN(C)C with half-life of 2 h or above?
A. true (1)

Q. Item COc1cc2c(Nc3ccc(F)c(Cl)c3)c(C(N)=O)cnc2cc1OCCNC1CC1 with half-life of 2 h or above?
A. false (0)

Q. Item COc1cc2c(Nc3ccc(F)cc3F)c(C(N)=O)cnc2cc1NCCN(C)C with half-life of 2 h or above?
A. false (0)

###

Quick list: bioavailability per entry.
Experiment: Bioavailability in rat at 3 mg/kg, iv and 10 mg/kg, po
Assay type: ADME, organism-based
Conditions: in vivo
Number in %, nothing else.

COc1cc2ncc(C(N)=O)c(Nc3ccc(F)cc3)c2cc1OC	96

Recorded result, COc1cc2ncc(C(N)=O)c(Nc3ccc(F)c(Cl)c3)c2cc1OC , bioavailability: 24
